meta.source: patent US20250154686A1

Below: a set of entries, each annotated with reported ASMS ratio (%) n = 2.
# Tgt: Bcl-2 protein (Recombinant Human Bcl-2 Protein) (Homo sapiens)
# Construct: purchased Novus Biologicals NBP2-34889
# Sequence (P10415 whole entry): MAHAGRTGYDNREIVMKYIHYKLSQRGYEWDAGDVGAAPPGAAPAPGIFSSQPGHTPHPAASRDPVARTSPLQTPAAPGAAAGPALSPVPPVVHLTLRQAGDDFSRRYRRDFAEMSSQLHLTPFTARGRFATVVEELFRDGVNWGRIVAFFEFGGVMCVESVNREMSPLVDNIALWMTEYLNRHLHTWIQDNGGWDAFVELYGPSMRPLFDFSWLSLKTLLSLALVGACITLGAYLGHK
# Assay Notes: AS-MS evaluation of binding of the Example 4 mixture library (1200 compounds/well) to Bcl-2, ASMS ratio (%)
# Condition Description: AS-MS, Example 4 mixture library, Bcl-2, replicate n = 2
Field: numeric (%). Do not append units.

CCOc1cccc(-c2ccc(C(=O)N3CCN(c4ccc(C(=O)NS(=O)(=O)c5ccc(NCCSc6ccccc6)c(C(F)(F)F)c5)cc4)CC3)cc2F)c1 [Compound B2R027-01]    1.2
CCOc1cncc(-c2cc(CN3CCN(c4ccc(C(=O)NS(=O)(=O)C(C)(C)C)nn4)CC3)cc(OC(C)C)c2)c1 [Compound B2L084-01]    −1.9
CCOc1cccc(-c2csc(CN3CCN(c4ccc(C(=O)NS(=O)(=O)c5ccc(NCCSc6ccccc6)c(C(F)(F)F)c5)nn4)CC3)c2)c1 [Compound B2R093-01]    0.0
CCOc1cccc(-c2cnn(-c3cc(C(=O)N4CCN(c5ccc(C(=O)NS(=O)(=O)CCC(F)(F)F)cc5)CC4)cc(C(F)(F)F)c3)c2)c1 [Compound B2N043-01]    0.1
CCOc1cncc(-c2csc(CN3CCN(c4ccc(C(=O)NS(=O)(=O)c5ccc(NCCSc6ccccc6)c(C(F)(F)F)c5)cc4)CC3)c2)c1 [Compound B2R068-01]    0.0

Now consider a different molecule.
Q: Specify measured ASMS ratio (%) n = 2 for CCOc1cccc(-c2ccc(C(C)N3CCN(c4ccc(C(=O)NS(=O)(=O)c5ccc(NCCSc6ccccc6)c(C(F)(F)F)c5)cc4)CC3)cc2)c1 (stereo not drawn) [Compound B2R097-01] .
A: −7.8
